Test Summary: Novel Modifiers of Survival Motor Neuron (SMN) Protein: Gene Identification via Genome-wide siRNA Screen;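 also: luminescence tracks full-length SMN protein made from the SMN2 reporter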
Study Conditions: HEK293T SMN2-luciferase reporter, siRNA knockdown, 72 h; actives lie on both sides
About 1,400 (4.5%) of roughly 31,000 sequences were called active.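 The calls were made as follows: active = median seed-adjusted z-score above 1 or below -1; inactive = the rest.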 Many of the other results were omitted from the sample, so actives are more common in it than they were.
I would appreciate it if you answered using one of these outcomes: 1 (active), -1 (inactive)

A selection of reference data follows.
- Chain: "GCUAACUACCAAGUCCUAATT against SLC8A1"
  Assigned Category: -1
- Chain: "GCAACUCCAUGUUUCAUAATT against PRMT1"
  Assigned Category: -1
- Chain: "GAGUGAGGACGGAAGAUCATT against APH1A"
  Assigned Category: -1

[ask] Which outcome was entered for the sequence CAGUCCCUAUUUCAAAAUATT against PDE6G in this test?
[reply] -1

[ask] Which outcome was entered for the sequence GCAAAAUGAUCAUUAAUGATT against EIF3C in this test?
[reply] -1

[ask] Which outcome was entered for the sequence GGAACUGUUUUUACAAGCATT against MKRN1 in this test?
[reply] -1

[ask] Which outcome was entered for the sequence CGCAAAAAGGCAGACGAAATT against DUX5 in this test?
[reply] -1

[ask] Which outcome was entered for the sequence AGAAGAUCGGAAUUCUUUATT against RGPD5 in this test?
[reply] -1

[ask] Which outcome was entered for the sequence GCCUAGACCUCUUCGCUUUTT against PASK in this test?
[reply] -1

[ask] Which outcome was entered for the sequence CUCUAAUGUUAAUCCGAGATT against MED14 in this test?
[reply] 1

[ask] Which outcome was entered for the sequence GGUAAAGAAUUCUCCGGAATT against FUS in this test?
[reply] -1

[ask] Which outcome was entered for the sequence GGCUACCUGCAUUCACUGATT against SGK1 in this test?
[reply] -1

[ask] Which outcome was entered for the sequence GGCAUUAUCUGGAUCACUUTT against PATE1 in this test?
[reply] 1

[ask] Which outcome was entered for the sequence UGACUGCGGAUAUAACUGATT against LMAN2 in this test?
[reply] -1

[ask] Which outcome was entered for the sequence CUUAACCUGUGGAAUCGAATT against NIPA2 in this test?
[reply] -1

[ask] Which outcome was entered for the sequence GCUACUUACAGGUACCGUATT against PDCD11 in this test?
[reply] -1

[ask] Which outcome was entered for the sequence AGCAGGCUUUGAUCAUUGATT against FKBP6 in this test?
[reply] 1

[ask] Which outcome was entered for the sequence CGACAAUGUUAAGUUCAUATT against SULT6B1 in this test?
[reply] -1

[ask] Which outcome was entered for the sequence CCCAGUCAAUCAAAGGAAATT against CD3G in this test?
[reply] -1

[ask] Which outcome was entered for the sequence CAUCAGAUCUUGAUCAGUUTT against NKTR in this test?
[reply] 1

[ask] Which outcome was entered for the sequence GCCUCUUUCUGUCAGCAUUTT against SPAG4 in this test?
[reply] -1

[ask] Which outcome was entered for the sequence GCAGCAACAUUAUUGUCUUTT against CLDN17 in this test?
[reply] -1

[ask] Which outcome was entered for the sequence GGAUAUGAGUUACAUGACATT against GALNT5 in this test?
[reply] -1

----------
Test Summary: Novel Modifiers of Survival Motor Neuron (SMN) Protein: Gene Identification via Genome-wide siRNA Screen;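 also: luminescence tracks full-length SMN protein made from the SMN2 reporter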
Study Conditions: HEK293T SMN2-luciferase reporter, siRNA knockdown, 72 h; actives lie on both sides
Experimental: Spinal muscular atrophy (SMA) is the most common neuromuscular autosomal recessive disorder and one of the leading genetic causes of infant death. […] Briefly, 1 pmol of each siRNA was spotted to a well of a 384-well plate (Corning, Corning, NY) and 20 microL of serum-free DMEM containing […] of Lipofectamine RNAiMax (Life Technologies, Carlsbad, CA) was then added to each well. […] Raw luminescence reads were normalized to Ambion(R) Silencer(R) Negative Control #2 siRNA, then log10 transformed. […]
About 1,400 (4.5%) of roughly 31,000 sequences were called active. The sample as a whole holds a higher share of actives than the screen did.
Readout: median seed-adjusted z-score
Respond with the number and no other words.

In plain terms, CCUUGUUUAUCAUAAGGGATT against ZNF613 has a documented median seed-adjusted z-score of -0.189
